pIC50 overview
# System under test: UniProt P18031
# Sequence (P18031 whole entry): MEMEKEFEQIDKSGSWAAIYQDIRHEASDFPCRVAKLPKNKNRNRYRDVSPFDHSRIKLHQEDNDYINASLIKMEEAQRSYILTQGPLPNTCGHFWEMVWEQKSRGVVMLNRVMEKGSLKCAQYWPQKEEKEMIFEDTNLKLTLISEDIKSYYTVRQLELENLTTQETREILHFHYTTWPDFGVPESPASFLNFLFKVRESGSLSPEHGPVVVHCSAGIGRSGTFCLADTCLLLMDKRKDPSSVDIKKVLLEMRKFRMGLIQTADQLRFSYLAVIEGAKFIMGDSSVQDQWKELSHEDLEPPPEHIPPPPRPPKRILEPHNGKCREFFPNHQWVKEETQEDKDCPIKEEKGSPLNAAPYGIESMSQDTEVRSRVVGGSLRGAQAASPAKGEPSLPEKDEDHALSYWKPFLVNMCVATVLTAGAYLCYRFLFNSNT
# Assay procedure: Inhibition of recombinant PTP1B (unknown origin) expressed in Escherichia coli using pNPP as substrate measured after 30 mins
pIC50: −log10 of the molar value.
Outcome measure: pIC50

{"Compound": "CCOS(=O)(=O)/C=C/c1ccc(OCc2cccc(COc3ccc(/C=C/S(=O)(=O)OCC)cc3)c2)cc1", "Value modifier": "=", "Result": 4.74}
{"Compound": "CCOS(=O)(=O)/C=C/c1ccc(OCc2ccc(COc3ccc(/C=C/S(=O)(=O)OCC)cc3)c(C(=O)OC)c2)cc1", "Value modifier": "=", "Result": 5.47}
{"Compound": "CCOS(=O)(=O)/C=C/c1ccc(OCc2ccc(COc3ccc(/C=C/S(=O)(=O)OCC)cc3)c(C(=O)Nc3ccc(Oc4ccc(C(C)(C)C)cc4)cc3)c2)cc1", "Value modifier": "=", "Result": 6.04}
{"Compound": "CCOS(=O)(=O)/C=C/c1ccc(OCc2ccc(COc3ccc(/C=C/S(=O)(=O)OCC)cc3)c(C(=O)O)c2)cc1", "Value modifier": "=", "Result": 5.89}
{"Compound": "CCOS(=O)(=O)/C=C/c1ccc(OCCCOc2ccc(/C=C/S(=O)(=O)OCC)cc2)cc1", "Value modifier": "=", "Result": 4.43}
{"Compound": "CCOS(=O)(=O)/C=C/c1ccc(OCc2ccc(COc3ccc(/C=C/S(=O)(=O)OCC)cc3)c(C(=O)Nc3ccc(Oc4ccccc4C(F)(F)F)cc3)c2)cc1", "Value modifier": "=", "Result": 6.06}
{"Compound": "CCOS(=O)(=O)/C=C/c1ccc(OCc2ccc(COc3ccc(/C=C/S(=O)(=O)OCC)cc3)c(C(=O)Nc3ccc(Oc4cccc(C(F)(F)F)c4)cc3)c2)cc1", "Value modifier": "=", "Result": 6.46}
{"Compound": "CCOS(=O)(=O)/C=C/c1ccc(OC2CCC(Oc3ccc(/C=C/S(=O)(=O)OCC)cc3)CC2)cc1 (stereo not drawn)", "Value modifier": "=", "Result": 4.53}
{"Compound": "CCOS(=O)(=O)/C=C/c1ccc(OCc2ccc(COc3ccc(/C=C/S(=O)(=O)OCC)cc3)c(C(=O)Nc3ccc(Oc4ccccc4F)cc3)c2)cc1", "Value modifier": "=", "Result": 6.07}
{"Compound": "CCOS(=O)(=O)/C=C/c1ccc(OCc2ccc(COc3ccc(/C=C/S(=O)(=O)OCC)cc3)c(C(=O)Nc3ccc(F)cc3)c2)cc1", "Value modifier": "=", "Result": 5.96}
{"Compound": "CCOS(=O)(=O)/C=C/c1ccc(OCc2ccc(COc3ccc(/C=C/S(=O)(=O)OCC)cc3)c(C(=O)Nc3ccc(Oc4ccc(C(C)C)cc4)cc3)c2)cc1", "Value modifier": "=", "Result": 6.12}
{"Compound": "CCOS(=O)(=O)/C=C/c1ccc(OCc2ccc(COc3ccc(/C=C/S(=O)(=O)OCC)cc3)c(C(=O)Nc3ccc(Oc4cccc(-c5ccccc5)c4)cc3)c2)cc1", "Value modifier": "=", "Result": 5.96}
{"Compound": "CCOS(=O)(=O)/C=C/c1ccc(OCc2ccc(COc3ccc(/C=C/S(=O)(=O)OCC)cc3)c(C(=O)Nc3ccc(Oc4ccc(CC)cc4)cc3)c2)cc1", "Value modifier": "=", "Result": 6.72}
{"Compound": "CCOS(=O)(=O)/C=C/c1ccc(OCc2ccc(COc3ccc(/C=C/S(=O)(=O)OCC)cc3)c(C(=O)Nc3ccc(Oc4ccc(Cl)cc4)cc3)c2)cc1", "Value modifier": "=", "Result": 6.40}
{"Compound": "CCOS(=O)(=O)/C=C/c1ccc(OCc2ccc(COc3ccc(/C=C/S(=O)(=O)OCC)cc3)c(C(=O)Nc3ccc(C(C)C)cc3)c2)cc1", "Value modifier": "=", "Result": 5.89}
{"Compound": "CCOS(=O)(=O)/C=C/c1ccc(OCc2ccc(COc3ccc(/C=C/S(=O)(=O)OCC)cc3)c(C(=O)Nc3ccc(OC)cc3)c2)cc1", "Value modifier": "=", "Result": 5.59}
{"Compound": "CCOS(=O)(=O)/C=C/c1ccc(OCc2ccc(COc3ccc(/C=C/S(=O)(=O)OCC)cc3)c(C(=O)Nc3ccc(Oc4ccccc4)cc3)c2)cc1", "Value modifier": "=", "Result": 6.07}
{"Compound": "CCOS(=O)(=O)/C=C/c1ccc(OCc2ccc(COc3ccc(/C=C/S(=O)(=O)OCC)cc3)c(C(=O)Nc3ccc(Oc4ccc(-c5ccccc5)cc4)cc3)c2)cc1", "Value modifier": "=", "Result": 6.85}
{"Compound": "CCOS(=O)(=O)/C=C/c1ccc(OCc2ccc(COc3ccc(/C=C/S(=O)(=O)OCC)cc3)c(C(=O)Nc3ccccc3)c2)cc1", "Value modifier": "=", "Result": 5.85}
{"Compound": "CCOS(=O)(=O)/C=C/c1ccc(OCCCCOc2ccc(/C=C/S(=O)(=O)OCC)cc2)cc1", "Value modifier": "<", "Result": 4.00}
{"Compound": "CCOS(=O)(=O)/C=C/c1ccc(OCCOc2ccc(/C=C/S(=O)(=O)OCC)cc2)cc1", "Value modifier": "=", "Result": 5.52}
{"Compound": "CCOS(=O)(=O)/C=C/c1ccc(OCc2ccc(COc3ccc(/C=C/S(=O)(=O)OCC)cc3)c(C(=O)Nc3ccc(Oc4ccc(F)cc4)cc3)c2)cc1", "Value modifier": "=", "Result": 5.89}
{"Compound": "CCOS(=O)(=O)/C=C/c1ccc(OCc2ccc(COc3ccc(/C=C/S(=O)(=O)OCC)cc3)c(C(=O)Nc3ccc(Oc4ccc5ccccc5c4)cc3)c2)cc1", "Value modifier": "=", "Result": 6.10}
{"Compound": "CCOS(=O)(=O)/C=C/c1ccc(OCc2ccc(COc3ccc(/C=C/S(=O)(=O)OCC)cc3)cc2)cc1", "Value modifier": "=", "Result": 5.92}
{"Compound": "CCOS(=O)(=O)/C=C/c1ccc(OCc2ccc(COc3ccc(/C=C/S(=O)(=O)OCC)cc3)c(C(=O)Nc3ccc(Oc4ccc(C(F)(F)F)cc4)cc3)c2)cc1", "Value modifier": "=", "Result": 6.09}
{"Compound": "CCOS(=O)(=O)/C=C/c1ccc(OCOc2ccc(/C=C/S(=O)(=O)OCC)cc2)cc1", "Value modifier": "=", "Result": 5.06}
{"Compound": "CCOS(=O)(=O)/C=C/c1ccc(OCc2ccc(COc3ccc(/C=C/S(=O)(=O)OCC)cc3)c(C(=O)Nc3ccc(Oc4ccc(Br)cc4Cl)cc3)c2)cc1", "Value modifier": "=", "Result": 6.80}
{"Compound": "CCOS(=O)(=O)/C=C/c1ccc(Oc2ccc(/C=C/S(=O)(=O)OCC)cc2)cc1", "Value modifier": "=", "Result": 4.93}

* * *

# Assay procedure: Apparent permeability of compound at 20 uM at pH 7.4 after 16 hrs by PAMPA
# Type: physicochemical
Would you mind labelling by Papp at 16 h, 20 µM? At or over 10 ×10⁻⁶ cm/s is condition met, under is condition not met.

{"Molecule": "CCOS(=O)(=O)/C=C/c1ccc(OCc2ccc(COc3ccc(/C=C/S(=O)(=O)OCC)cc3)c(C(=O)Nc3ccc(Oc4ccc(CC)cc4)cc3)c2)cc1", "Class name": "condition not met"}
{"Molecule": "CC(C)NCC(O)COc1cccc2ccccc12 (stereo unspecified)", "Class name": "condition met"}
{"Molecule": "CCOS(=O)(=O)/C=C/c1ccc(OCc2ccc(COc3ccc(/C=C/S(=O)(=O)OCC)cc3)c(C(=O)Nc3ccc(Oc4ccc(Cl)cc4)cc3)c2)cc1", "Class name": "condition not met"}
{"Molecule": "CCOS(=O)(=O)/C=C/c1ccc(OCc2ccc(COc3ccc(/C=C/S(=O)(=O)OCC)cc3)c(C(=O)Nc3ccc(Oc4ccc(Br)cc4Cl)cc3)c2)cc1", "Class name": "condition met"}
{"Molecule": "CCOS(=O)(=O)/C=C/c1ccc(OCc2ccc(COc3ccc(/C=C/S(=O)(=O)OCC)cc3)c(C(=O)Nc3ccc(Oc4ccc(-c5ccccc5)cc4)cc3)c2)cc1", "Class name": "condition not met"}
{"Molecule": "CCOS(=O)(=O)/C=C/c1ccc(OCc2ccc(COc3ccc(/C=C/S(=O)(=O)OCC)cc3)c(C(=O)Nc3ccc(Oc4cccc(C(F)(F)F)c4)cc3)c2)cc1", "Class name": "condition not met"}
